Numbers sourced from paper doi:10.1101/466904.

- Tested Target: the molecule itself
- Assay Text: SEC
Measurement Kind: stoichiometry N
The answer should be a number; do not append a unit.

Measured stoichiometry N, Axe2 Tyr184Phe mutant (enzyme) MKIGSGEKLLFIGDSITDCGRARPEGEGSFGALGTGYVAYVVGLLQAVYPELGIRVVNKGISGNTVRDLKARWEEDVIAQKPDWVSIMIGINDVWRQYDLPFMKEKHVYLDEYEATLRSLVLETKPLVKGIILMTPFYIEGNEQDPMRRTMDQYGRVVKQIAEETNSLFVDTQAAFNEVLKTLFPAALAWDRVHPSVAGHMILARAFLREIGFEWVRSR : 2

Lab book: stoichiometry N of Axe2 Arg192Lys mutant (enzyme) MKIGSGEKLLFIGDSITDCGRARPEGEGSFGALGTGYVAYVVGLLQAVYPELGIRVVNKGISGNTVRDLKARWEEDVIAQKPDWVSIMIGINDVWRQYDLPFMKEKHVYLDEYEATLRSLVLETKPLVKGIILMTPFYIEGNEQDPMRRTMDQYGRVVKQIAEETNSLFVDTQAAFNEVLKTLYPAALAWDKVHPSVAGHMILARAFLREIGFEWVRSR noted as 2

Reported stoichiometry N ( Axe2 Trp190Ile mutant (enzyme) MKIGSGEKLLFIGDSITDCGRARPEGEGSFGALGTGYVAYVVGLLQAVYPELGIRVVNKGISGNTVRDLKARWEEDVIAQKPDWVSIMIGINDVWRQYDLPFMKEKHVYLDEYEATLRSLVLETKPLVKGIILMTPFYIEGNEQDPMRRTMDQYGRVVKQIAEETNSLFVDTQAAFNEVLKTLYPAALAIDRVHPSVAGHMILARAFLREIGFEWVRSR ) = 8
